Where do the numbers come from? From the kinase profiling compilation of Christmann-Franck et al. (2016).

Assay System: NUAK1 (human)
Assay Overview: KINOMEscan competition binding
Test Parameters: compound 10.0 µM
kinase still bound, per cent of control values by entry

| Smiles String | kinase still bound, per cent of control (%) |
| --- | --- |
| COc1cc2ncn(-c3cc(OCc4ccccc4C(F)(F)F)c(C(N)=O)s3)c2cc1OC | 21 |
| CNC(=O)c1ccc(Nc2cc(Nc3ccccc3S(=O)(=O)C(C)C)c3cc[nH]c3n2)nc1 | 0.95 |
| COc1cc(C(=O)N2CCC(N3CCN(C)CC3)CC2)ccc1Nc1ncc2c(n1)N(C)c1ccccc1C(=O)N2C | 47 |

====

kinase still bound, per cent of control values by entry
Assay System: FLT4 (human)
Assay Overview: KINOMEscan competition binding
Test Parameters: compound 10.0 µM
Measured Metric: kinase still bound, per cent of control

| Smiles String | Result Value |
| --- | --- |
| Cc1n[nH]c2ccc(-c3cncc(OC[C@@H](N)Cc4c[nH]c5ccccc45)c3)cc12 | 100% |
| O=C(Nc1cccc(Nc2ncc(Br)c(NCCc3cnc[nH]3)n2)c1)N1CCCC1 | 0.05% |
| CCN1CCN(C(=O)Cc2ccc(Nc3ncc(F)c(Nc4ccc(C(=O)Nc5ccccc5Cl)cc4)n3)cc2)CC1 | 7.6% |
| COc1cc2ncn(-c3cc(OCc4ccccc4C(F)(F)F)c(C(N)=O)s3)c2cc1OC | 1.4% |
| COCC(=O)NC/C=C/c1ccc2ncnc(Nc3ccc(Oc4ccc(C)nc4)c(C)c3)c2c1 | 98% |
| CNC(=O)c1ccc(Nc2cc(Nc3ccccc3S(=O)(=O)C(C)C)c3cc[nH]c3n2)nc1 | 29% |
| CCN(CC)CCCCNc1ncc2c(n1)N(C)C(=O)N(c1c(Cl)c(OC)cc(OC)c1Cl)C2 | 100% |
| NC(=O)Nc1cc(-c2cccc(F)c2)sc1C(=O)N[C@@H]1CCCNC1 | 0% |
| CCN(CC)CCCCNc1ncc2cc(-c3cc(OC)cc(OC)c3)c(NC(=O)NC(C)(C)C)nc2n1 | 6% |
| COc1cc2ncnc(-n3nc(-c4ccccn4)nc3N)c2cc1OC | 14% |
| COc1ccc(N(C(=O)Oc2c(C)cccc2C)c2ccnc(Nc3ccc(N4CCN(C)CC4)cc3)n2)c(OC)c1 | 16% |
| COc1cc(N2CCN(C)CC2)ccc1Nc1ncc2c(n1)N(C)c1ccccc1C(=O)N2C | 100% |
| COc1cc(C(=O)N2CCC(N3CCN(C)CC3)CC2)ccc1Nc1ncc2c(n1)N(C)c1ccccc1C(=O)N2C | 100% |
